Listed below: cytotoxicity at 70.5 h values for each entry.
- procedure details: Human HepG2 cell viability assay in 384 well format
- Format: toxicity, cell-based
- Set-up: dose 125 nL, time 70.5 hour; concentration not given beside the values
- protocol conditions: HepG2 cells, read-out: Inhibition

molecule	cytotoxicity at 70.5 h
O=C(NCCC(=O)N1CCCCCCC1)c1ccoc1	-1.22%
Cc1nn(C)c(Cl)c1C1CCCN1CC(=O)NC1CCCCC1 (configuration not stated)	5.03%
COc1ccc(CCNC(=O)C2CCOC2)c(Cl)c1 (configuration not stated)	-2.75%
O=C(CCn1c(C(F)F)cc2cccnc21)NC1CCCC1	-6.41%
COc1ccccc1Oc1ncccc1CNC(=O)[C@H](C)O	-6.71%
O=C(Nc1ccc(Br)cc1F)c1ccc(N2CCOCC2)nn1	-6.45%
O=C(NC1CCOC1)c1cccc(S(=O)(=O)NCCCc2ncc[nH]2)c1 (configuration not stated)	-13.4%
COC(=O)CN(C(=O)c1ccc(Cl)cn1)c1cccc(F)c1	-0.717%
CC(=O)N1CC2(CCN(c3ccc4ccccc4n3)CC2)CC1C(=O)O (configuration not stated)	4.97%
Cc1cc(-c2cnc(N3CCCC3)nc2-c2ccc(C)s2)on1	-6.38%
CC1CN(Cc2cccnc2)CCN1c1ccc2nncn2n1 (configuration not stated)	-8.86%
CC(C)(C)c1nccc(N2CCCCC2CNS(C)(=O)=O)n1 (configuration not stated)	-4.1%
Cc1noc(CN2CCN(c3cncc(Cl)n3)CC2)n1	-4.58%
NC(=O)CCn1ccc(NC(=O)c2ccc(OCC3CC3)cc2)n1	-3.84%
CC1CCN(c2cc(CCC3CCCN3)ncn2)CC1 (configuration not stated)	-3.6%
Cc1nc(C)n(C2CCCN(C(=O)CCOC(C)C)C2)n1 (configuration not stated)	10.2%
Cc1nnc([C@H]2C[C@H]3OCC[C@H]3N(S(=O)(=O)CC(C)C)C2)o1	-1.29%
COC1CCN(CCNc2ncc(Br)cc2C)CC1	-1.86%
COc1ncccc1NC(=O)N(CC(C)C)C1CC1	-8.09%
CCn1cc(NC(=O)NCc2ccc(CO)c(F)c2)cn1	-7.1%
Cn1ncc2c(=O)[nH]c(CN3CCc4sccc4C3)nc21	13.1%
Cc1csc(CNC(=O)NCC2(c3ccc4c(c3)OCO4)CC2)n1	-2.06%
O=C(c1cccc(Oc2ccccc2)c1)N1CCCC(O)(CO)CC1 (configuration not stated)	-8.12%
Cc1cnn(C2CN(CC(=O)NCCCc3ccccc3)C2)c1	24.2%
CC(C)(C)n1cc(C(=O)N2CCN(Cc3ccccc3F)CC2)cn1	5.09%
Cc1ccnc(N2CCCC(c3nccn3C(C)C)C2)n1 (configuration not stated)	1.49%
Cn1cnc(S(=O)(=O)NCCCN2CCCC2=O)c1Cl	-2.39%
O=C(Nc1ccccc1OCCc1ccccn1)N1CCOCC1	-13.5%
COc1cccc(Oc2nc(C)c(C(=O)O)s2)c1OC	-13.3%
Cc1cnn(C2CCCN(C(=O)CCNS(C)(=O)=O)C2)c1 (configuration not stated)	24.7%
COc1ccc(NC(=O)Cc2c(C)nc3c(c2C)c(=O)[nH]n3C)cn1	-4.63%
c1cnn(CC2CCCN2Cc2ccc(-n3cccn3)cc2)c1 (configuration not stated)	-8.68%

Source listed as ChEMBL document CHEMBL3507680.
